# System: HEK-293T
# runDescription: Multiplex assay against HEK293T
# Assay type: toxicity, cell-based
# runParameters: human, 12 h, 10 µM, compound concentration 10 uM, replicate 1
observable: Population Membrane Permeable-Phenotype (%)
Mention the unit after the number when you answer.

See these solved cases before continuing.
compound=COc1cc2nccc(Oc3ccc(NC(=O)Nc4cc(C)on4)c(Cl)c3)c2cc1OC.O systemname=HEK-293T measured=2%
compound="Cc1nc(-c2cn3c(n2)-c2ccc(-c4cnn(C(C)(C)C(N)=O)c4)cc2OCC3)n(C(C)C)n1 [TASELISIB]" systemname=HEK-293T measured=3%
compound=Cc1csc2c(N[C@@H](C)CN3CCN(S(=O)(=O)c4ccc(Cl)c(Cl)c4)CC3)ncnc12 systemname=HEK-293T measured=20%
compound="Cc1nc(Nc2n[nH]c3c2CN(C(=O)N[C@H](CN(C)C)c2ccccc2)C3(C)C)c2sccc2n1 [PF-03758309]" systemname=HEK-293T measured=12%
compound=Cc1cc(C)cc(-c2cnc3cc(Cl)c(-c4cccc(O)c4)cc3c2OCCCN)c1 systemname=HEK-293T measured=33%

Please look at the following compound next.
For the compound Cn1cc(-c2[nH]c3cc(NC(=O)[C@H](N)C4CCCCC4)cc4c3c2C=NNC4=O)cn1 , report Population Membrane Permeable-Phenotype (%).
10%

====

# System: HEK-293T
# runDescription: Multiplex assay against HEK293T
# Type: toxicity, cell-based
# runParameters: human, 48 h, 1 µM, compound concentration 1 uM, replicate 1
observable: Population Normal (%)
Record the value in %, omitting the unit from your answer.

See these solved cases before continuing.
compound="CN1CCN(c2ccc(OC(F)(F)F)c(Nc3ncc4c(n3)-c3c(c(C(N)=O)nn3CCO)CC4)c2)CC1 [ONVANSERTIB]" observable="Population Normal (%)" measureunit=% measured=79
compound="COc1ncc(-c2ccc3nccc(-c4ccnnc4)c3c2)cc1NS(=O)(=O)c1ccc(F)cc1F [OMIPALISIB]" observable="Population Normal (%)" measureunit=% measured=77
compound="Cc1c(-c2ccc(O)cc2)n(Cc2ccc(OCCN3CCCCCC3)cc2)c2ccc(O)cc12 [BAZEDOXIFENE]" observable="Population Normal (%)" measureunit=% measured=90
compound="Cl.N#Cc1ccc2[nH]cc(CCCCN3CCN(c4ccc5oc(C(N)=O)cc5c4)CC3)c2c1 [VILAZODONE HYDROCHLORIDE]" observable="Population Normal (%)" measureunit=% measured=92
compound="O=C1NCN(c2ccccc2)C12CCN(CCCOc1ccc(F)cc1)CC2 [SPIRAMIDE]" observable="Population Normal (%)" measureunit=% measured=92

Please look at the following compound next.
# return Population Normal (%) of Cn1cc(-c2[nH]c3cc(NC(=O)[C@H](N)C4CCCCC4)cc4c3c2C=NNC4=O)cn1 (system: HEK-293T)
76

====

# Tested on: Fibroblast
# runDescription: Incucyte cell viability with human fibroblast; also: filed as whole numbers so only -1 and 0 and 1 occur
# Assay type: toxicity, cell-based
# runParameters: 18 h, 10 µM, compound concentration 10 uM, replicate number 1, timepoint 18 hours
observable: Growth Rate
Answer field: number only, no words.

See these solved cases before continuing.
molecule=NC(=O)c1ccc(NC(=O)NCc2cccc(C(=O)Nc3ccc4c(c3)CNCC4)c2)cc1 observable="Growth Rate" measured=1
molecule=Cc1nc(Nc2n[nH]c3c2CN(C(=O)N[C@H](CN(C)C)c2ccccc2)C3(C)C)c2sccc2n1 observable="Growth Rate" measured=0
molecule=CN1CCN(CCOc2cc(OC3CCOCC3)c3c(Nc4c(Cl)ccc5c4OCO5)ncnc3c2)CC1 observable="Growth Rate" measured=1
molecule=COc1ncc(-c2ccc3nccc(-c4ccnnc4)c3c2)cc1NS(=O)(=O)c1ccc(F)cc1F observable="Growth Rate" measured=0
molecule=C[C@@H](c1cccc(CN)c1)n1cc(Cl)cc(C(N)=O)c1=N.Cl observable="Growth Rate" measured=1
molecule="CC(C)NCC(O)COc1ccc(CCOCC2CC2)cc1.Cl (stereo not given) [BETAXOLOL HYDROCHLORIDE]" observable="Growth Rate" measured=0
molecule=O=C(NCCCN1CCOC1=O)c1cnc(NCc2cc(Br)ccc2Br)nc1NC1CCCC1 observable="Growth Rate" measured=0
molecule=Br.Br.N=C(N)SCCc1c[nH]cn1 observable="Growth Rate" measured=1

For the molecule CN1C(=O)c2sccc2N(C)c2nc(Nc3ccc(S(N)(=O)=O)cc3)ncc21 , report Growth Rate.
0

For the molecule O=C(O)c1ccc(-c2coc3ncc(-c4ccccc4)cc23)cc1Cl , report Growth Rate.
0

For the molecule COc1cc(-n2cnc3cc(-c4ccc(Cl)cc4)sc3c2=O)ccc1OCCN1CCCC1 , report Growth Rate.
0

For the molecule COc1cccc([C@@H](C)NCCCc2ccccc2Cl)c1.Cl [TECALCET HYDROCHLORIDE] , report Growth Rate.
1

For the molecule CC1(C)CCC(C)(C)c2cc(C3(c4ccc(C(=O)O)cc4)OCCO3)ccc21 , report Growth Rate.
1

For the molecule C[C@H]1CC(=O)Nc2cc(C(=O)NCCC3CC3)ccc2N1C(=O)N1CC2CC2C1 (stereo not given in full) , report Growth Rate.
0

For the molecule N#CC(Cc1ccc(O)cc1)c1ccc(O)cc1 (stereo not given) , report Growth Rate.
0

For the molecule Cn1cc(C2=C(c3cn(C4CCN(Cc5ccccn5)CC4)c4ccccc34)C(=O)NC2=O)c2ccccc21 , report Growth Rate.
0

For the molecule COc1ccc(Oc2cc(NCCC(F)(F)F)c3ncc(-c4ccc(C(=O)NC5CC5)c(C)c4)n3n2)c(F)c1F , report Growth Rate.
0

For the molecule Cc1c(OCc2cccc(-c3ccc(C(=O)O)cc3)c2)cc2c(c1C)C(=O)C(C1CCCC1)C2 (stereo not given) , report Growth Rate.
0

For the molecule CN(C)c1ncnc(-c2ccc3nc(Nc4cc(CN5CCN(C(=O)CC(F)(F)F)CC5)ccn4)[nH]c3c2)c1Cl , report Growth Rate.
1

For the molecule Cc1cc(C)cc(-c2cnc3cc(Cl)c(-c4cccc(O)c4)cc3c2OCCCN)c1 , report Growth Rate.
0

For the molecule O=C(NCCCC1CCCCC1)c1ccc(CNC(=O)c2cnn(-c3ccccc3)c2C(F)(F)F)cc1 , report Growth Rate.
1

For the molecule CNC(=NCCSCc1csc(N=C(N)N)n1)NC#N , report Growth Rate.
0

For the molecule C[C@H](Cc1cc2c(c(C(N)=O)c1)N(CCCO)CC2)NCCOc1ccccc1OCC(F)(F)F , report Growth Rate.
0

For the molecule CNCCC(Oc1ccc(C(F)(F)F)cc1)c1ccccc1.Cl (stereo not given) [FLUOXETINE HYDROCHLORIDE] , report Growth Rate.
1

For the molecule CC(=O)Nc1c(C(C)=O)c(=O)n(C)c2nc(-c3ccc(Cl)cc3Cl)c(-c3ccc(Cl)cc3)cc12 , report Growth Rate.
0

For the molecule N#Cc1c(O)nc(SCc2cccc(F)c2F)nc1C1CC1 , report Growth Rate.
1

For the molecule CN1CCN(c2ccc(OC(F)(F)F)c(Nc3ncc4c(n3)-c3c(c(C(N)=O)nn3CCO)CC4)c2)CC1 , report Growth Rate.
0

For the molecule C[C@@]1(Cc2ccc(C#N)cc2)C(=O)N(c2cc(Cl)cc(Cl)c2)c2ncc(C(=O)NC3(c4nc(C5CCC5)no4)CC3)n21 , report Growth Rate.
0

For the molecule OC1(c2ccc(Cl)cc2)CCN(Cc2c[nH]c3ccccc23)CC1 , report Growth Rate.
0

For the molecule N[C@H](C(=O)O)c1ccc(C(=O)O)c(C(=O)O)c1 , report Growth Rate.
1

For the molecule Nc1nc(NCc2ccccc2)nc(-c2ccccc2CO)n1 , report Growth Rate.
0

====

# Tested on: Fibroblast
# runDescription: Multiplex assay against human fibroblast
# Type: toxicity, cell-based
# runParameters: 12 h, 10 µM, compound concentration 10 uM, replicate 2
Below: a set of entries, each annotated with reported Population Membrane Permeable-Phenotype (%).
Mention the unit after the number when you answer.

See these solved cases before continuing.
molecule=Cc1csc2c(N[C@@H](C)CN3CCN(S(=O)(=O)c4ccc(Cl)c(Cl)c4)CC3)ncnc12 measured=56%
molecule=c1cn2cc(-c3ccc4cn[nH]c4c3)nc(Nc3ccc(N4CCOCC4)cc3)c2n1 measured=21%
molecule="CN(C)C(=O)N[C@H]1CC[C@H](CCN2CCN(c3cccc(Cl)c3Cl)CC2)CC1.Cl [CARIPRAZINE HYDROCHLORIDE]" measured=47%
molecule=Cn1cc(-c2[nH]c3cc(NC(=O)[C@H](N)C4CCCCC4)cc4c3c2C=NNC4=O)cn1 measured=21%
molecule="O=C1NCN(c2ccccc2)C12CCN(CCCOc1ccc(F)cc1)CC2 [SPIRAMIDE]" measured=2%
molecule="COc1cccc([C@@H](C)NCCCc2ccccc2Cl)c1.Cl [TECALCET HYDROCHLORIDE]" measured=18%

For the molecule Cc1cc(C)cc(-c2cnc3cc(Cl)c(-c4cccc(O)c4)cc3c2OCCCN)c1 , report Population Membrane Permeable-Phenotype (%).
90%

For the molecule CC(C)(O)CNc1ncc(-c2ccnc(Nc3ccnc(Cl)c3)n2)c(CC2CC2)n1 , report Population Membrane Permeable-Phenotype (%).
28%

For the molecule CNc1nc(NCc2ccc(NS(C)(=O)=O)cc2Cl)cc(-c2ccccn2)n1 , report Population Membrane Permeable-Phenotype (%).
12%

Origin of values: ChEMBL document CHEMBL4689842
